# key: entry, value: IC50
Target: Isoleucine--tRNA ligase (Escherichia coli K-12, UniProt P00956)
Sequence (P00956 whole entry): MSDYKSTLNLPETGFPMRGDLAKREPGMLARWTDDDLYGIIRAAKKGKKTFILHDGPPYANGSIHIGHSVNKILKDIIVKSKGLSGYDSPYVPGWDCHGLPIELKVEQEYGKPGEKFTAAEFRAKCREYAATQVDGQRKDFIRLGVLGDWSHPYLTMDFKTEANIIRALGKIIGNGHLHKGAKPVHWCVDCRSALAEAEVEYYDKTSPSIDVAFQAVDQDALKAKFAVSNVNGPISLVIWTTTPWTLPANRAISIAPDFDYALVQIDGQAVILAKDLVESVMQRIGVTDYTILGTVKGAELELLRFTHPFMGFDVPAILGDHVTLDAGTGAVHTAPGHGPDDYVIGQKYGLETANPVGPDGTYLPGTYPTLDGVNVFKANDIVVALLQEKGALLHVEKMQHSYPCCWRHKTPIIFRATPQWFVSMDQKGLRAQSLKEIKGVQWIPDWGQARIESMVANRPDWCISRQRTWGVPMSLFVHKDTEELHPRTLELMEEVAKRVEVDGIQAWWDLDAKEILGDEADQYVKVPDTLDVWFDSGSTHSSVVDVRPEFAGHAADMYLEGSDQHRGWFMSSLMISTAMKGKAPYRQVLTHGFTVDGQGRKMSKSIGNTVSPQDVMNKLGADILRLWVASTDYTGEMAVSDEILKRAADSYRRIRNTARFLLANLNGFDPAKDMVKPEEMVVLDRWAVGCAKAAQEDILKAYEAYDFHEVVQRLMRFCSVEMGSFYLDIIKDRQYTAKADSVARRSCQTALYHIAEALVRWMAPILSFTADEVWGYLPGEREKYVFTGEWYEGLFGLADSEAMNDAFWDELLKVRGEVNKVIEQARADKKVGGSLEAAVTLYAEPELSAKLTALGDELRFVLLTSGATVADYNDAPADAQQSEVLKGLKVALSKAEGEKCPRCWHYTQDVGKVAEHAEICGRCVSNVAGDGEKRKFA
Quick reminder: number only, in µM, skip the unit.

Known IC50 results, listed for orientation:
compound | IC50 [µM]
CCCCS(=O)(=O)/C=C(\C)C[C@@H]1OCC(C[C@@H]2O[C@H]2[C@@H](C)[C@H](C)O)[C@@H](O)[C@H]1O (some centres undefined) | 181
C/C(=C\Sc1ccccc1)C[C@@H]1OC[C@H](C[C@@H]2O[C@H]2[C@@H](C)[C@H](C)O)[C@@H](O)[C@H]1O | 11
C[C@H]([C@@H]1O[C@H]1CC1CO[C@@H](CC2=CC(=O)OC2)[C@H](O)[C@@H]1O)[C@H](C)O (some centres undefined) | 794

// next item, IC50 requested
Asked: Reported IC50, compound CCCCOC/C=C(\C)C[C@@H]1OCC(C[C@@H]2O[C@H]2[C@@H](C)[C@H](C)O)[C@@H](O)[C@H]1O (some centres undefined) : ____
Given back: 51.7

The reported numbers originate from ChEMBL document CHEMBL1124316.
